The origin of these recorded values is patent EP4714948A1.

# System: H1975
# Experiment Summary: Cell antiproliferative assay (CTG, 72 h)
# Type: cell-based
# Measurement Parameters: Homo sapiens, NCI-H1975, H1975 (EGFR T790M/L858R)
pIC50: −log10 of the molar value.
Readout Type: pIC50

Worked examples follow.
Compound	Assayed Target	Result
CCc1cc(Nc2ncc(Cl)c(Nc3ccccc3C(=O)NC)n2)c(OC)cc1N1CC2(CN(C(=O)CN3CCC(c4ccc(NC5CCC(=O)NC5=O)cc4)CC3)C2)C1 (stereo not drawn) [Compound T-080]	H1975	> 8.00
CCc1cc(Nc2ncc(Cl)c(Nc3ccccc3C(=O)NC)n2)c(OC)cc1N1CCN(C(=O)CN2CCC(c3ccc(NC4CCC(=O)NC4=O)cc3F)CC2)CC1 (stereo not drawn) [Compound T-067]	H1975	> 8.00

Would you kindly look at the next entry?
Entry CNC(=O)c1ccccc1Nc1nc(Nc2ccc(N3CCN(C(=O)CN4CCC(c5ccc6c(N7CCC(=O)NC7=O)nn(C)c6c5)C(F)(F)C4)CC3)cc2OC)ncc1Cl (stereo not drawn) [Compound T-047] , pIC50 reported as 7.00 to 8.00

###

# Assayed Target: EGFR in BAF3-DTC (Baf3-19del-T780M-C797S) (Homo sapiens, UniProt P00533, C797S/DEL746-750/T790M)
# Sequence (P00533 with tags, fused parts or gaps DEL746-750/T790M/C797S): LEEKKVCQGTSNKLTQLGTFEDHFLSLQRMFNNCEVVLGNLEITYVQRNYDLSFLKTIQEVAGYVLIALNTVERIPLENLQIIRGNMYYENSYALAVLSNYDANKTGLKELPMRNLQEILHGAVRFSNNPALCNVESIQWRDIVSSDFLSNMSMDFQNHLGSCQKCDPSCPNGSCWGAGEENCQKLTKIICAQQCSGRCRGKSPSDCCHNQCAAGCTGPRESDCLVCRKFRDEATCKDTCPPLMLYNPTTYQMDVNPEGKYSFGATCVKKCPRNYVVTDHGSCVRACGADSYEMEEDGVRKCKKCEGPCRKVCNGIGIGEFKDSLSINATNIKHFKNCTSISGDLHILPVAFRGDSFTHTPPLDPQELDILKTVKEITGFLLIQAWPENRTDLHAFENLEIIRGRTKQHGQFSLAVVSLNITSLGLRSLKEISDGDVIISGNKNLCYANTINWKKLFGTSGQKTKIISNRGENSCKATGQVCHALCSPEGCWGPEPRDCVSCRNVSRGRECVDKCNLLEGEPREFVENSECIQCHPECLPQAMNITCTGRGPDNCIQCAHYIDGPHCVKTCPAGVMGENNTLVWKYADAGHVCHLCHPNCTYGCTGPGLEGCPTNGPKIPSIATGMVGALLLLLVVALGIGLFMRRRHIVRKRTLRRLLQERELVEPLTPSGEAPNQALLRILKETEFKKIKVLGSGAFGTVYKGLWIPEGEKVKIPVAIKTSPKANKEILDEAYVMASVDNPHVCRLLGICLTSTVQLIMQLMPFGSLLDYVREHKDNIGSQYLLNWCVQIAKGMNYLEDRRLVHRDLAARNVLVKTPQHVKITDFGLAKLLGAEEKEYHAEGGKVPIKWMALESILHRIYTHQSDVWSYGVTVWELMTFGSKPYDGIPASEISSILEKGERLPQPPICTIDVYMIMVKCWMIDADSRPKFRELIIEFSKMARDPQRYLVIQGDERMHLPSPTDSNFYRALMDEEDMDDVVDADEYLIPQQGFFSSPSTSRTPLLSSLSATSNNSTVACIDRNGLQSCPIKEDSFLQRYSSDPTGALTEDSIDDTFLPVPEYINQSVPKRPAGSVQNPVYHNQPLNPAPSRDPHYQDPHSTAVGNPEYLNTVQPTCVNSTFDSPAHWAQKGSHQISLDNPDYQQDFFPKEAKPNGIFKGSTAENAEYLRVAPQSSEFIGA
# Experiment Summary: EGFR PROTAC HTRF experiment (total EGFR degradation)
# Format: cell-based
# Measurement Parameters: BAF3-DTC cells, 16 hours incubation
Readout Type: DC50

Molecule	Result
C=Cc1cc(Nc2ncc(Cl)c(Nc3ccccc3C(=O)NC)n2)c(OC)cc1N1CCN(C(=O)CN2CCC(c3ccc(NC4CCC(=O)NC4=O)cc3)CC2)CC1 (stereo not drawn)	10 to 100 nM
CCc1cc(Nc2ncc(Cl)c(Nc3ccccc3C(=O)NC)n2)c(OC)cc1N1CCN(C(=O)CN2CCN(c3ccc(NC4CCC(=O)NC4=O)cc3F)CC2)CC1 (stereo not drawn)	10 to 100 nM
CCc1cc(Nc2ncc(Cl)c(Nc3ccccc3C(=O)NC)n2)c(OC)cc1N1CCN(CCN2CCC(c3ccc(NC4CCC(=O)NC4=O)cc3)CC2)CC1 (stereo not drawn)	10 to 100 nM
CCc1cc(Nc2ncc(Cl)c(Nc3ccccc3C(=O)NC)n2)c(OC)cc1N1CCN(C(=O)CN2CCC(c3ccc(NC4CCC(=O)NC4=O)cc3C)CC2)CC1 (stereo not drawn)	100 to 1000 nM
CCc1cc(Nc2ncc(Cl)c(Nc3ccccc3C(=O)NC)n2)c(OC)cc1N1CCN(C(=O)CN2CCC(c3ccc4c(N5CCC(=O)NC5=O)nn(C)c4c3)C(F)(F)C2)CC1 (stereo not drawn)	10 to 100 nM
CNC(=O)c1ccccc1Nc1nc(Nc2cc(C)c(N3CCN(CCN4CCC(c5ccc(NC6CCC(=O)NC6=O)cc5)CC4)CC3)cc2OC)ncc1Cl (stereo not drawn)	100 to 1000 nM

DC50 reported for this molecule CCc1cc(Nc2ncc(Cl)c(Nc3ccccc3C(=O)NC)n2)c(OC)cc1N1CCN(C(=O)CN2CCC(c3ccc(NC4CCC(=O)NC4=O)cc3F)CC2)CC1 (stereo not drawn) : 10 to 100 nM

Lab note: measured DC50 of CCc1cc(Nc2ncc(Br)c(Nc3ccccc3C(=O)NC)n2)c(OC)cc1N1CCN(C(=O)CN2CCC(c3ccc4c(N5CCC(=O)NC5=O)nn(C)c4c3)C(F)(F)C2)CC1 (stereo not drawn) was ≤ 10 nM

Item: CCc1cc(Nc2ncc(Cl)c(Nc3ccccc3C(=O)NC)n2)c(OC)cc1N1CCN(C(=O)CN2CCC(c3c(F)cc(NC4CCC(=O)NC4=O)cc3F)CC2)CC1 (stereo not drawn) | DC50: 10 to 100 nM

###

Recorded measurements of MRT last, one per entry
# Experiment Summary: Pharmacokinetic test on male SD rats
# Format: in vivo
# Measurement Parameters: rat, po, gavage (p.o.), 10 mg/kg, plasma
Respond numerically; units are h and should not be typed.

Some solved cases for reference:
Compound	MRT last (h)
CCc1cc(Nc2ncc(Cl)c(Nc3ccccc3C(=O)NC)n2)c(OC)cc1N1CCN(C(=O)CC2(O)CCN(c3ccc(NC4CCC(=O)NC4=O)cc3F)CC2)CC1 (centres unmarked)	7.49
CCc1cc(Nc2ncc(Cl)c(Nc3ccccc3C(=O)NC)n2)c(OC)cc1N1CCN(C(=O)CN2CCC(c3ccc(NC4CCC(=O)NC4=O)cc3C(F)(F)F)CC2)CC1 (centres unmarked)	9.66
COc1cc(N2CCN(C(=O)CN3CCC(c4ccc(NC5CCC(=O)NC5=O)cc4)CC3)CC2)ccc1Nc1ncc(Cl)c(Nc2ccccc2C(C)=O)n1 (centres unmarked) [Control Compound 1, reference compound]	7.32
CCc1cc(Nc2ncc(Br)c(Nc3ccccc3C(=O)NC)n2)c(OC)cc1N1CCN(C(=O)CN2CCC(c3ccc4c(N5CCC(=O)NC5=O)nn(C)c4c3)C(F)(F)C2)CC1 (centres unmarked)	5.88

Alright, here's another compound for you.
Briefly, MRT last measured for CCc1cc(Nc2ncc(Cl)c(Nc3ccccc3C(=O)NC)n2)c(OC)cc1N1CCN(C(=O)CN2CCC(c3ccc(NC4CCC(=O)NC4=O)cc3F)CC2)CC1 (centres unmarked) : 7.78

###

# Experiment Summary: Pharmacokinetic test on male SD rats
# Type: in vivo
# Measurement Parameters: rat, po, gavage (p.o.), 10 mg/kg, plasma
Recorded Tmax values for a group of compounds are listed next.
Lab book: enter the figure in h, no units written.

Compound	Tmax / h
CCc1cc(Nc2ncc(Cl)c(Nc3ccccc3C(=O)NC)n2)c(OC)cc1N1CCN(C(=O)CN2CCC(c3ccc(NC4CCC(=O)NC4=O)cc3C(F)(F)F)CC2)CC1 (centres unmarked) [Compound T-074]	5.33

Tmax measured on CCc1cc(Nc2ncc(Cl)c(Nc3ccccc3C(=O)NC)n2)c(OC)cc1N1CCN(C(=O)CN2CCC(c3ccc(NC4CCC(=O)NC4=O)cc3F)CC2)CC1 (centres unmarked) [Compound T-067] = 4

The compound COc1cc(N2CCN(C(=O)CN3CCC(c4ccc(NC5CCC(=O)NC5=O)cc4)CC3)CC2)ccc1Nc1ncc(Cl)c(Nc2ccccc2C(C)=O)n1 (centres unmarked) [Control Compound 1, reference compound] showed Tmax equal to 5.33

Please fill in: Tmax reported for CCc1cc(Nc2ncc(Cl)c(Nc3ccccc3C(=O)NC)n2)c(OC)cc1N1CCN(C(=O)CN2CCN(c3ccc(NC4CCC(=O)NC4=O)cc3F)CC2)CC1 (centres unmarked) [Compound T-029] = 4.67

Summary for this compound, CCc1cc(Nc2ncc(Cl)c(Nc3ccccc3C(=O)NC)n2)c(OC)cc1N1CCN(C(=O)CC2(O)CCN(c3ccc(NC4CCC(=O)NC4=O)cc3F)CC2)CC1 (centres unmarked) [Compound T-037] : Tmax is 2.67

###

Quick list: Dmax per entry.
# Assayed Target: EGFR in BAF3-LTC (Baf3-L858R-T780M-C797S) (Homo sapiens, UniProt P00533, C797S/L858R/T790M)
# Sequence (P00533 25-1210 T790M/C797S/L858R): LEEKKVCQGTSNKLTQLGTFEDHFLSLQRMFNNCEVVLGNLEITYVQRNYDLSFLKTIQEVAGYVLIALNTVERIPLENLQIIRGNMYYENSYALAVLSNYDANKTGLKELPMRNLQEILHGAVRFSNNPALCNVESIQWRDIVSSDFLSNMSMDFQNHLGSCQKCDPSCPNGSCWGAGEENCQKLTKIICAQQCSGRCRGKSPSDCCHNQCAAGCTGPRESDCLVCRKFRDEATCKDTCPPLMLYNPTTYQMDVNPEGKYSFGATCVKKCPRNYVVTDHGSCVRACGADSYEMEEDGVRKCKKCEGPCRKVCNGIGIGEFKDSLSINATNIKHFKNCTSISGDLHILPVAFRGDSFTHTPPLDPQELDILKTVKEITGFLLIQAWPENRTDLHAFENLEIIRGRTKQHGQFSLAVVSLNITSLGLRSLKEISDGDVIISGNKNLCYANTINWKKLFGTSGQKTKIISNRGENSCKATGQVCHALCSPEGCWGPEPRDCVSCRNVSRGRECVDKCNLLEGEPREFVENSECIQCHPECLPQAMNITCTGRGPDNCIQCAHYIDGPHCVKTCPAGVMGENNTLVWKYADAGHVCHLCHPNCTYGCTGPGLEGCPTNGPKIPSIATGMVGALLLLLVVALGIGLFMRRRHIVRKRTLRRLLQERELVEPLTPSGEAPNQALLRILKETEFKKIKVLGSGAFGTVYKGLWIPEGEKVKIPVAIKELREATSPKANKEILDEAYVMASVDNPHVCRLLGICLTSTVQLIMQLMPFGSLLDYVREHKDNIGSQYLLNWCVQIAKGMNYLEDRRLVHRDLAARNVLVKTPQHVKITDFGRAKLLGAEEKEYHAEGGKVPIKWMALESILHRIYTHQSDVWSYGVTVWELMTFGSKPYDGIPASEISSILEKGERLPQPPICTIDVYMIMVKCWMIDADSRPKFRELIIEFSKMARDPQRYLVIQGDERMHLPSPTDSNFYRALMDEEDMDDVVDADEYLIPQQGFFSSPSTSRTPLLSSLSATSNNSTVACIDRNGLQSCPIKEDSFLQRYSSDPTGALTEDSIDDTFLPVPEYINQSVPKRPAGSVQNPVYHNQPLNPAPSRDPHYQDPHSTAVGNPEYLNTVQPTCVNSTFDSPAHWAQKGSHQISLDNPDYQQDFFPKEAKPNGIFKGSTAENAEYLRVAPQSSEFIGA
# Experiment Summary: EGFR PROTAC HTRF experiment (total EGFR degradation)
# Type: cell-based
# Measurement Parameters: BAF3-LTC cells, 16 hours incubation

Solved cases (4 shown):
Molecule	Dmax
C=Cc1cc(Nc2ncc(Cl)c(Nc3ccccc3C(=O)NC)n2)c(OC)cc1N1CCN(C(=O)CN2CCC(c3ccc(NC4CCC(=O)NC4=O)cc3)CC2)CC1 (stereo not drawn)	70 to 100%
CNC(=O)c1ccccc1Nc1nc(Nc2cc(C)c(N3CCN(CCN4CCC(c5ccc(NC6CCC(=O)NC6=O)cc5)CC4)CC3)cc2OC)ncc1Cl (stereo not drawn)	70 to 100%
CCc1cc(Nc2ncc(Cl)c(Nc3ccccc3C(=O)NC)n2)c(OC)cc1N1CCN(C(=O)CN2CCC(c3ccc4c(N5CCC(=O)NC5=O)nn(C)c4c3)C(F)(F)C2)CC1 (stereo not drawn)	70 to 100%
CCc1cc(Nc2ncc(Cl)c(Nc3ccccc3C(=O)NC)n2)c(OC)cc1N1CCN(C(=O)CC2(O)CCN(c3ccc(NC4CCC(=O)NC4=O)cc3F)CC2)CC1 (stereo not drawn)	50 to 70%

Lab note: COc1cc(N2CCN(C(=O)CN3CCC(c4ccc(NC5CCC(=O)NC5=O)cc4)CC3)CC2)ccc1Nc1ncc(Cl)c(Nc2ccccc2-c2ncc[nH]2)n1 (stereo not drawn) gave Dmax of 50 to 70%

For record CCc1cc(Nc2ncc(Cl)c(Nc3ccccc3C(=O)NC)n2)c(OC)cc1N1CCN(C(=O)CN2CCN(c3ccc(NC4CCC(=O)NC4=O)cc3F)CC2)CC1 (stereo not drawn) the listed Dmax is 70 to 100%

Query CCc1cc(Nc2ncc(Cl)c(Nc3ccccc3C(=O)NC)n2)c(OC)cc1N1CC2CCC(C1)N2C(=O)CN1CCC(c2ccc(NC3CCC(=O)NC3=O)cc2)CC1 (stereo not drawn) yields Dmax of 50 to 70%

What the record says about CCc1cc(Nc2ncc(Cl)c(Nc3ccccc3C(=O)NC)n2)c(OC)cc1N1CCN(C(=O)CN2CCC(c3ccc(NC4CCC(=O)NC4=O)cc3F)CC2)CC1 (stereo not drawn) : Dmax is 70 to 100%

Sample CCc1cc(Nc2ncc(Cl)c(Nc3ccccc3C(=O)NC)n2)c(OC)cc1N1CCN(C(=O)CN2CCC(c3c(F)cc(NC4CCC(=O)NC4=O)cc3F)CC2)CC1 (stereo not drawn) ; Dmax observed: 70 to 100%
